Target: UKPV, spike on pseudotyped lentivirus, Alpha (SARS-CoV-2 (B.1.1.7, Alpha)) (UniProt P0DTC2)
Test: dot blot
measurement.name: Kd (pM)
State the answer as a number, implicitly in pM.

sequence TTCCGGTTAATTTATGCTCTACCCGTCCACCTACCGGAATTTTTTTTTTTTTTTTTTTTTTTTTTTTTTACGGGTTTGGCGTCGGGCCTGGCGGGGGGATAGTGCGGT [DSA1N5 (T30 linker)] , Kd observed: 2.3
